Biological target: p38a/MK2 (Homo sapiens (Human), UniProt P49137+Q16539)
Sequence (P49137 46-400): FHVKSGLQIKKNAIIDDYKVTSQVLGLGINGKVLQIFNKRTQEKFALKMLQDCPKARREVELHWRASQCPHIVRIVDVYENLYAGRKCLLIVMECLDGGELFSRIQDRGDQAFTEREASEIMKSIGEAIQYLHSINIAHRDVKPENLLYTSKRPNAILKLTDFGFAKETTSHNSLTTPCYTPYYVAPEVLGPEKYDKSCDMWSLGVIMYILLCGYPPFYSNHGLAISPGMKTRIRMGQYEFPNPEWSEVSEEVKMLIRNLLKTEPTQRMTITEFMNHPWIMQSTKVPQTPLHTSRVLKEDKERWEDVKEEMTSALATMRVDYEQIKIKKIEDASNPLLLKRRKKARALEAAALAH
Sequence (Q16539 whole entry): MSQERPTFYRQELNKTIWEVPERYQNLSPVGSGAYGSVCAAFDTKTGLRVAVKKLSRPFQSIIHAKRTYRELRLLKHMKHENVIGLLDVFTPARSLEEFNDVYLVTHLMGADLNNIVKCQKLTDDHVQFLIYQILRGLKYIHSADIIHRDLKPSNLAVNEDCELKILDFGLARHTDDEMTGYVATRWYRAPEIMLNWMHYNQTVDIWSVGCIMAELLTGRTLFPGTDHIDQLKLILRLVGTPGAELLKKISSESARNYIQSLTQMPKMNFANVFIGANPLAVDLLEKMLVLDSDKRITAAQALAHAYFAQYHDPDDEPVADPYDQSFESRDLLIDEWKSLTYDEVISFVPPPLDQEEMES
Assay: p38a/MK2 biochemical assay: activation of MK2 by p38, FITC-HSP27 peptide phosphorylation (IMAP FP)
Settings: 10-point 1:3 dilution, top dose 1 μM; 60 pM active p38a, 1 nM inactive MK2, 10 μM ATP, 2 h incubation; read-out: p38a/MK2 (1 μM) Enzyme pIC50 (converted)
reported_property: IC50

These solved cases illustrate the format of a correct answer.
- compound: "Cc1cnc(-c2ccnc(C3(O)CCC3)n2)cc1-n1c(C)cc(OCc2ncc(F)cc2F)c(Cl)c1=O (single isomer, unassigned) [Example 41B]"
  IC50: "> 1000 nM"
- compound: "Cc1cnc(-c2ccnc(CC3(O)CC3)n2)cc1-n1c(C)cc(OCc2ncc(F)cc2F)c(Cl)c1=O (single isomer, unassigned) [Example 48B]"
  IC50: "> 1000 nM"

Now look at this one.
Input line: Lab note: need IC50 with p38a/MK2 (Homo sapiens (Human), UniProt P49137+Q16539) for entry [2H]C([2H])(Oc1cc(C)n(-c2c(C)cnc(-c3ccnc(C(C)(C)O)c3F)c2F)c(=O)c1Cl)c1ncc(F)cc1F (single isomer, unassigned) [Example 65B] , please look it up.
Output line: > 100 nM

----------
Reported IC50 values for a set of molecules
Target: p38a/MK2 (Homo sapiens (Human), UniProt P49137+Q16539)
Experiment: p38a/MK2 biochemical assay: activation of MK2 by p38, FITC-HSP27 peptide phosphorylation (IMAP FP)
Conditions: 10-point 1:3 dilution, top dose 1 μM; 60 pM active p38a, 1 nM inactive MK2, 10 μM ATP, 2 h incubation; read-out: p38a/MK2 (1 μM) Enzyme pIC50 (converted)

These solved cases illustrate the format of a correct answer.
- molecule: "Cc1cnc(-c2ccnc(C(C)(C)O)n2)c(C)c1-n1c(C)cc(OCc2ncc(F)cc2F)c(Cl)c1=O (single isomer, unassigned) [Example 49B]"
  IC50: "> 1000 nM"
- molecule: "Cc1cnc(-c2ccnc(N(C)CCO)n2)cc1-n1c(C)cc(OCc2ncc(F)cc2F)c(Cl)c1=O (single isomer, unassigned) [Example 43B]"
  IC50: "> 1000 nM"

Now look at this one.
Input line: Return reported IC50; argument: Cc1cnc(-c2ccnc(C3(O)CCOCC3)n2)cc1-n1c(C)cc(OCc2ncc(F)cc2F)c(Cl)c1=O (single isomer, unassigned) [Example 39B]
Output line: > 1000 nM

----------
Target: p38a/MK2 (Homo sapiens (Human), UniProt P49137+Q16539)
Assay: p38a/MK2 biochemical assay: activation of MK2 by p38, FITC-HSP27 peptide phosphorylation (IMAP FP)
Details: 10-point 1:3 dilution, top dose 1 μM; 60 pM active p38a, 1 nM inactive MK2, 10 μM ATP, 2 h incubation; read-out: p38a/MK2 (1 μM) Enzyme pIC50 (converted)
Reported IC50 values for a set of molecules

These solved cases illustrate the format of a correct answer.
- molecule: "[2H]C([2H])(Oc1cc(C)n(-c2cc(-c3ccnc(C(C)(C)O)c3F)ncc2C)c(=O)c1Cl)c1ncc(F)cc1F (single isomer, unassigned) [Example 64B]"
  result: "> 100 nM"
- molecule: "Cc1cnc(-c2ccnc(C(O)C3CC3)n2)cc1-n1c(C)cc(OCc2ncc(F)cc2F)c(Cl)c1=O (single isomer, unassigned) [Example 35C]"
  result: "> 1000 nM"

Now look at this one.
Input line: Return reported IC50; argument: Cc1cnc(-c2cccc(C(C)(C)O)[n+]2[O-])c(F)c1-n1c(C)cc(OCc2ncc(F)cc2F)c(Cl)c1=O (single isomer, unassigned) [Example 62B]
Output line: > 100 nM
